targetDesc: T1, human CD73-His protein (human, UniProt P21589 27-549)
T1 construct: Expressed in HEK-293F with a signal peptide that is not specified; In the ELISAs it was biotinylated with EZ-Link NHS-Biotin (CD73-biotin) and captured on streptavidin; in SPR and the enzyme assay it was used as CD73-His; also called CD73-his antigen; CD73-biotin
T1 sequence: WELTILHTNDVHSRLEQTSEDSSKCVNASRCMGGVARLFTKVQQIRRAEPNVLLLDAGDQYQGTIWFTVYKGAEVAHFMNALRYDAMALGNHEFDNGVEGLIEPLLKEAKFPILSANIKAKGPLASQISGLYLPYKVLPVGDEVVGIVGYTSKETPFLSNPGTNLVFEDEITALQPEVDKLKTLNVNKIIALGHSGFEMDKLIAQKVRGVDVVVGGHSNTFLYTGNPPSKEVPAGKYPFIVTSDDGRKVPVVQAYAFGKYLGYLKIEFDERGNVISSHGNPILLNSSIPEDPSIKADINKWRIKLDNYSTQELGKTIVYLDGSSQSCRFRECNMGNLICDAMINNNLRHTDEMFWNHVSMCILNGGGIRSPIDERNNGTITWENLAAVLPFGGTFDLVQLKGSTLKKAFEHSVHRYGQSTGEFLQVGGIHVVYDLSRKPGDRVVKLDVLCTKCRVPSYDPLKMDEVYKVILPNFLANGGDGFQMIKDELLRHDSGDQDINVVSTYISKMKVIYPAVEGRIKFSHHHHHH
protocolText: ELISA, biotinylated CD73-His on streptavidin plate
Protocol: The ELISA plates were coated with SA protein diluted to 1.5 μg/mL in coating buffer (50 mM carbonate coating buffer, pH 9.6) and incubated overnight at 4° C. The supernatant was discarded, and the plates were washed three times with PBST. […] The OD values were read at 450 nm using a multimode microplate reader to analyze the binding ability of the tested antibodies to the target antigen human CD73-His. […]
metric: EC50 (nM)
# output: bare number, implied unit nM

For orientation, consider the following solved cases.
binder="56B10-HuV32 (antibody, human IgG4, V domains shown, Humanized) VH: QVQLQQSGAEVKKPGASVKVSCKASGYTFTRYYIYWVRQRPGQGLEWIGWIYPGNFNTKYNEKFKGRATLTADTSASTAYMELSSLTSEDTAVYYCARDVYDYAGFAYWGQGTLVTVSS VL: DIQLTQSPSFLSASVGDRVTITCKASQGVATAVAWYQQKPGKAPKLLIYWASTRHTGVPSRFSGSGSGTEFTLTISSLQPEDFATYYCQQYSSYPWTFGQGTKVEIK" recordedvalue=0.105
binder="56B10-HuV21 (antibody, human IgG4, V domains shown, Humanized) VH: QVQLVQSGAEVKKPGASVKVSCKTSGYTFTRYYIYWVRQAPGQGLEWIGWIYPGNFNTKYNEKFKGRATLTADTSASTAYMELSSLRSEDTAVYYCARDVYDYAGFAYWGQGTLVTVSS VL: DIQLTQSPSFLSASVGDRVTITCKASQGVATAVAWYQQKPGQSPKLLIYWASTRHTGVPDRFSGSGSGTEFTLTISSLQPEDFATYYCQQYSSYPWTFGQGTKVEIK" recordedvalue=0.11

Switching to the query record.
Prompt line: Return value of EC50 for input 48A11-HuV22 (antibody, human IgG4, V domains shown, Humanized) VH: QVQLVQSGAEVKKPGASVKVSCKASGYTFTSYWMHWVRQAPGQGLEWIGEINPSIGRTNYNEKFKSRATLTVDKSTSTAYMELSSLRSEDTAVYYCARRVYGTMDYWGQGTLVTVSS VL: DIQMTQSPSSLSASVGDRVTITCKASQDINSYLSWFQQKPGKSPKTLIYRANIWVDGVPSRFSGSGSGQDYTFTISSLQPEDIATYYCLQYDELYTFGQGTKVEIK , no commentary.
Response line: 0.093
